Reported relative binding ratio (ratio to standard peptide) values are given for each entry in this list.
Target: HLA-A*1101 (human)
Test: inhibition of 125I probe peptide binding to purified HLA
Conditions: remark: other sources report otherwise
reportedMetric: relative binding ratio (ratio to standard peptide)

binder	result
SSCMGGMNR [p53 position 240, 9 amino acids]	1.4
SSCMGGMNRR [p53 position 240, 10 amino acids]	0.086
VTCTYSPALNK [p53 position 122, 11 amino acids]	0.12
TCTYSPALNK [p53 position 123, 10 amino acids]	0.012
RTEEENLRK [p53 position 283, 9 amino acids]	0.091
YGFRLGFLH [p53 position 107, 9 amino acids]	0.26
LGFLHSGTAK [p53 position 111, 10 amino acids]	0.0002
RVRAMAIYK [p53 position 156, 9 amino acids]	0.73
KGQSTSRHK [p53 position 373, 9 amino acids]	0.0002
TSRHKKLMFK [p53 position 377, 10 amino acids]	0.0052
TSSSPQPK [p53 position 312, 8 amino acids]	0.0019
